Origin of values: patent US20240010634A1

- measured_on: ACK1 (Homo sapiens (Human), UniProt Q07912)
- Sequence (Q07912 whole entry): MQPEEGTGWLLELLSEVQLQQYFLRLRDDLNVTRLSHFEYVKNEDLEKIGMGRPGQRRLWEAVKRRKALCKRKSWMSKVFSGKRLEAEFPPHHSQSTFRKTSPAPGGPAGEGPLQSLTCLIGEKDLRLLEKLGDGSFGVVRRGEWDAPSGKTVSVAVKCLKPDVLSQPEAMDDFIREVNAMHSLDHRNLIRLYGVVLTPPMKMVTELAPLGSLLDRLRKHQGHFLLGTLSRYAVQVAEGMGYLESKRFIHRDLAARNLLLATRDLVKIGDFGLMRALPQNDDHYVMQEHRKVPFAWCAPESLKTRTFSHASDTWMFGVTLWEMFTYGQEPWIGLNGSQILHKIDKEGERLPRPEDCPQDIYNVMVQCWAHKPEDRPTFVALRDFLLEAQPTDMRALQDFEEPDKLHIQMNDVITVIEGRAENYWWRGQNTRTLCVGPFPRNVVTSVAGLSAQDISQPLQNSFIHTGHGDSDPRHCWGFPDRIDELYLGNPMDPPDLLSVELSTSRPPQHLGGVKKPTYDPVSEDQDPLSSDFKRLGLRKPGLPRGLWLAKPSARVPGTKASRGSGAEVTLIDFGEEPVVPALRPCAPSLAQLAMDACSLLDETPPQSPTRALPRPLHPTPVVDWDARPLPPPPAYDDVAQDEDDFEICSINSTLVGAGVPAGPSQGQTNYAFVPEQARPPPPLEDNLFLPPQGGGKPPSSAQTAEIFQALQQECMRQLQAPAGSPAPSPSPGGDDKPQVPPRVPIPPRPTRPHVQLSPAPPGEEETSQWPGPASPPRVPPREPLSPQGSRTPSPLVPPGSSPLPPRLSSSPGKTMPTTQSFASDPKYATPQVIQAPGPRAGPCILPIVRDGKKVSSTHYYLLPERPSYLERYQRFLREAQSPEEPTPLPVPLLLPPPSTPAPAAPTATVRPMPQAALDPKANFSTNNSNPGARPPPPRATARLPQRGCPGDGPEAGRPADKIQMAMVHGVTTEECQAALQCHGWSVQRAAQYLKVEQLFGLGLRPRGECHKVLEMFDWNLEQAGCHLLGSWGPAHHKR
- method_summary: ACK1 IC50 (Table 1, method not described)
- Type: biochemical
assay_endpoint: pIC50
pIC50 is defined as minus the log10 of a concentration measured in mol/L.

Quick one: pIC50 for "COc1cc(N2CCN(C)CC2)ccc1Nc1ncc(C)c(Nc2ccc(Cl)c(NS(=O)(=O)C(C)(C)C)c2)n1" ? 7.48

// query: "COc1cc(N2CCN(C)CC2)ccc1Nc1ncc(C)c(Nc2cccc(NS(=O)(=O)C(C)(C)C)c2)n1" 7.46

====

Please provide measured IC50 for the entries that follow.
- measured_on: ACK1 (Homo sapiens (Human))
- method_summary: Reaction Biology 33P Hotspot assay
- Type: biochemical
Form entry: value (nM) — number only.

Given "COc1cc(Nc2ncc(C)c(Nc3cccc(NS(=O)(=O)C(C)(C)C)c3)n2)ccc1-c1cnn(C)c1" , state its recorded IC50. 19

What do we get for "COc1cc(Nc2ncc(C)c(Nc3ccc(NS(=O)(=O)C(C)(C)C)cc3)n2)ccc1N1CCN(C)CC1" ? 15.9

Thanks! And "COc1cc(N2CCN(C)CC2)c(F)cc1Nc1ncc(C)c(Nc2ccc(NS(=O)(=O)C(C)(C)C)cc2)n1" ? 30.8

And "COc1cc(-c2cnn(C)c2)ccc1Nc1ncc(C)c(Nc2cccc(NS(=O)(=O)C(C)(C)C)c2)n1" ? 15.2

Item: "Cc1cnc(Nc2ccc(N3CCN(C)CC3)c(OC(C)C)c2)nc1Nc1ccc(Cl)c(NS(=O)(=O)C(C)(C)C)c1" 14

Follow-up entry: "CC(C)Oc1cc(Nc2ncc(Cl)c(Nc3ccc(NS(C)(=O)=O)cc3)n2)ccc1N1CCN(C)CC1" 26.7

Next entry: "CC(C)Oc1cc(Nc2ncc(Cl)c(Nc3cccc(NS(=O)(=O)C(C)(C)C)c3)n2)ccc1N1CCN(C)CC1" 15

Likewise for "CC(C)Oc1cc(Nc2ncc(Cl)c(Nc3ccc(NS(=O)(=O)C(C)(C)C)cc3)n2)ccc1N1CCN(C)CC1" ? 15.5

Another: "COc1cc(N2CCN(C)CC2)ccc1Nc1ncc(C)c(Nc2cccc(NS(=O)(=O)C(C)(C)C)c2)n1" 21.9
